Biological target: human PD-L1 expressed on cell surface (human, UniProt Q9NZQ7 19-290)
Sequence (Q9NZQ7 19-290 limits assumed): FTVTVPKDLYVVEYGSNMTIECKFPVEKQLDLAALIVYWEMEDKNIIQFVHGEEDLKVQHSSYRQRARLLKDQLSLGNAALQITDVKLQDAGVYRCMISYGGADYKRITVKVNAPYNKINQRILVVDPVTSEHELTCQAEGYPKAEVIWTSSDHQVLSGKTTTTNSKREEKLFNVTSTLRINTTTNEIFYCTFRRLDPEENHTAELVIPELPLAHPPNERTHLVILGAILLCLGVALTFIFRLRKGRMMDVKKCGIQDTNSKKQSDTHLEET
Test: cell-based or functional assay
Each entry below carries its recorded Internalization (%), FACS, 2 µg/ml, 4 h.
Just the number in %, nothing appended.

Examples from the recorded data:
- Binder: "32E2 (antibody, human IgG1, V domains shown) VH: QEQLEESGGDLVKPEGSLTLTCTASGFSFSSSYYMSWVRQAPGMGLEWIASISGGVTDNAYYASWAKGRFTVSKTSSTTVTLQLTSLTAADTATYFCARDSSSGYFFLLWGPGTLVTVSS VL: LVMTQTPSSVSAAVGGTVTINCQASQNIYSNLAWYQQKPGQRPKLLIFGASNLRSGVPSRFKGSGSGTEYTLTISDLECADAATYYCQEGYSIGNVDNPFGGGTEVVVK"
  Internalization (%), FACS, 2 µg/ml, 4 h: 7.6
- Binder: "74A9 (antibody, human IgG1, V domains shown) VH: QSVEESGGRLVTPGTPLTLTCAVSGFSLSTYALGWVRQAPGKGLEWIGSISIGGATYYASWAKGRFTISKTSTTVDLKIASPTTEDTATYFCARNVDSIYLDAFHTWGPGTLVTVSL VL: DIVMTQTPASVEAAVGGTVTIKCQASQNIYNNLAWYQQKPGQPPKLLIYRASTLASGVPSRFKGSGSGTEYTLTISDLECDDAATYYCQTYYLTTTTNAFGGGTEVVVK"
  Internalization (%), FACS, 2 µg/ml, 4 h: 11.7

Need Internalization (%), FACS, 2 µg/ml, 4 h, item 55H3/76D6 (antibody, human IgG1, V domains shown) VH: QEQLEESGGGLVQPEGSLTLTCTVSGFSFSGDYYMSWVRQAPGKGLEWVASIYTGSLNSYYATWAKGRFTISLTSSTTVTLQMTSLTAADTATYFCARRNKNADYGHFDLWGPGTLVTVSS VL: YDMTQTPASVEVAVGGTVTIKCQASESINDRLAWYQQKPGQPPKLLIYAASTLASGVPSRFRGSGSGTDFTLTISDLECADAATYYCQQGWTVSSLDNAFGGGTEVVAM
22.2

GET /values?readout=Internalization (%), FACS, 2 µg/ml, 4 h&item= 57B10 (antibody, human IgG1, V domains shown) VH: QEQLEESGGGLVQPEGSLTLTCTASGFSFSDDYYMSWVRQAPGKGLEWIASIYTGSLNTYYATWAKGRFTISLTSSTTVTLQMTSLTAADTATYFCARRNKNADWGHFDLWGPGTLVTVSS VL: YDMTQTPASVEVAVGGTVTIKCQASQSISTALAWYQQKPGQPPKLLIYAASTLASGVPSRFRGSGSGTDFTLTISDLECADAATYYCQQGWTVSSLDNAFGGGTEVVAM
22.1

# get_value(readout='Internalization (%), FACS, 2 µg/ml, 4 h', item= 56E5 (antibody, human IgG1, V domains shown) VH: QEQLEESGGGLVQPEGSLTLTCTASGFSFSGDYYMSWVRQAPGKGLEWIASIYTGSLNTYYATWAKGRFTISLTSSTTVTLQMTSLTAADTATYFCARRHKNADYGHFDLWGPGTLVTVSS VL: YDMTQTPGSVEVAVGGTVTIKCQASQSINDRLAWYQQTPGQPPKLLIYGASTLASGVPSRFKGSGSGTEFTLTISDLECADAATYYCQQGWTVSSLDNAFGGGTEVVAK )
26.5
